Consider the following sequences and their measured PBM binding z-score readings.
system: LXRa homodimer (NR concentration 270 nM); assay: PBM binding z-score (relative to random genomic background probes); higher = stronger binding; sequences stand for … in GC…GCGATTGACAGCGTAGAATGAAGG
Respond with the number and no other words.

Please review the following examples before continuing.
| BIOPOLYMER_SEQUENCE | PBM binding z-score |
| --- | --- |
| CCTATTAGATGACCATAAGGGCAACCGAAGCTCG | 0.303 |
| CTCAAAAGGTCGTGCTCAGGTGAGTATACCAAAC | 0.165 |
| TGAATGAGGTGATAAGATCAGGGAACGTTGCAAA | -0.391 |
| CCTACTGAGCCAAAAAGGTCATTGATGCCGATAA | 3.65 |
| TGAATGAGGTTATAAGCTCAGGGAACGTTGCAAA | -0.535 |

q: Any idea what PBM binding z-score was measured for `CCTAGCAGGCCAATCTGGGTTACTCAAGGCTTGA` ?
a: -0.681

q: Moving on to the next sequence: `TCTAGTTGGTCAAAAGTCACACACTCGAAATGCG`
a: 0.475

q: Moving on to the next sequence: `TGAATGAGGTTAAAGATCCGGGAACGTGGCGTCG`
a: -0.227

----------
tested on: PPARg:RXRa IVT, anti-PPARg (NR concentration 270 nM, RXRa partner concentration 90 nM); assay: PBM binding z-score (relative to random genomic background probes); higher = stronger binding; sequences stand for … in GC…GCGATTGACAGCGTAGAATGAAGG
Consider the following sequences and their measured PBM binding z-score readings.

Please review the following examples before continuing.
| BIOPOLYMER_SEQUENCE | TARGET_SYSTEM | PBM binding z-score |
| --- | --- | --- |
| CCTACTGGGCCATCAGGTCATTGCTATCAACGTT | PPARg:RXRa IVT, anti-PPARg (NR concentration 270 nM, RXRa partner concentration 90 nM) | 4.95 |
| GCTGCTAGGTCAACTGATGGTCAGCTGAAGCTCG | PPARg:RXRa IVT, anti-PPARg (NR concentration 270 nM, RXRa partner concentration 90 nM) | 3.93 |
| ATCTCTAGGTAAAGTTCAGAGAAAGATCGATAGA | PPARg:RXRa IVT, anti-PPARg (NR concentration 270 nM, RXRa partner concentration 90 nM) | 2.79 |
| GCTGCTAGGTCAACAGATGGTCAGCTAAAGCTCG | PPARg:RXRa IVT, anti-PPARg (NR concentration 270 nM, RXRa partner concentration 90 nM) | 3.68 |
| CGAACTCGGTCAAGGACAGTGAATCTCCGCACGC | PPARg:RXRa IVT, anti-PPARg (NR concentration 270 nM, RXRa partner concentration 90 nM) | 2.25 |

q: # value lookup — system PPARg:RXRa IVT, anti-PPARg (NR concentration 270 nM, RXRa partner concentration 90 nM), readout PBM binding z-score, item `ACAGTCAGGTGATGAAGGTAACTCAGGCTATCAT`
a: 0.415

q: Moving on to the next sequence: `AGAACGAGGGCAATGAGTTGATAACACGGGTGGC`
a: 2.45

q: Moving on to the next sequence: `CCAGACAGGTGAGAAGGTAACTGAGCCTCGATTA`
a: 0.477

q: Moving on to the next sequence: `GCTTGTCGATCAAGGTTAAGAAAGACTAAGCTAA`
a: 0.582

q: Moving on to the next sequence: `TCTTGTAGATCAAAGGATAAGAAAGCCGAAGCCT`
a: 0.245

q: Moving on to the next sequence: `AGTCAAAGTTCATCTAGGTAACCTAAGATATGCT`
a: 3.71

q: Moving on to the next sequence: `ACTATTAGTTGACTTAGGACAACCGATACGACGC`
a: 0.214
